Reference source: the supplement of paper PMC10567573

Measured protein stability index, listed per entry.
B1: BCL2L13 (parent)
chain: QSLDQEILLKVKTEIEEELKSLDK

Variants of: B1
Assay Info: protein stability index of a GFP-peptide fusion (GPS, HEK-293T) (PSI 1-6); higher = more stable;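 also: lentivirally expressed fusions sorted by FACS into six bins by GFP to DsRed ratio, PSI derived from sequencing read proportions per bin multiplied by bin number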
Test Conditions: c terminus: a fixed tail appended
Output: the number by itself.

Record excerpt, results attached:
protein stability index for K20F is 4.2

protein stability index for L3M is 5.47

protein stability index for E16I is 4.35

protein stability index for L22P is 5.67

protein stability index for L19F is 4.76

More entries:
protein stability index for Q1Y is 3.69

protein stability index for S2Y is 4

protein stability index for E16H is 4.4

protein stability index for E17N is 4.11

protein stability index for I15W is 4.45

protein stability index for V11P is 5.61
